Test: Cataleptic activity (Courvoisier's method)
Conditions: rat, in vivo, sc
Measured property: ED50 at 4 h (mg/kg)
Write the value in mg/kg as a bare number.

# get_value(readout='ED50 at 4 h', item= CCN(CC)CCNC(=O)c1cc(Cl)c(N)cc1OC [metoclopramide, reference compound] ) 45

----------
Assay: in vivo
Conditions: LD50 mouse i.v. / antiemetic ED50 dog s.c., x 1/1000, Table I, read-out: Safety margin (LD50/ED50)
Measured property: selectivity ratio
The answer should be a number; do not append a unit.

CCN(CC)CCNC(=O)c1nc(Cl)c(NC)nc1OC    9100
CN(C)CCCN1c2ccccc2Sc2ccc(Cl)cc21 [chlorpromazine, reference compound]    290
CCN(CC)CCNC(=O)c1nc(Cl)c(N)nc1OC    12500
CCN1CCCC1CNC(=O)c1nc(Cl)cnc1OC (stereo not drawn)    8500
CCOc1nc(N)c(Cl)nc1C(=O)NCCN(CC)CC    6010
CCNc1nc(OC)c(C(=O)NCC2CCCN2C)nc1Cl (stereo not drawn)    15000
CCN1CCCC1CNC(=O)c1nc(Cl)c(N)nc1OC (stereo not drawn)    45700
CCNc1nc(OC)c(C(=O)NCCN(CC)CC)nc1Cl    4550

# ---- query compound ----
# get_value(readout='selectivity ratio', item= CCNc1nc(OC)c(C(=O)NCC2CCCN2CC)nc1Cl (stereo not drawn) ) 23500

Entry source: patent US4041032A
